Hello, the source for this data is patent US10800752B2, in case you need it.

assay: Evaluation of a conversion rate to 2-acetylnaphtho[2,3-b]furan-4,9-dione in human plasma; format: in vitro ADME; settings: Human plasma, 1 umol/L, 37° C., incubation time 120 min
Mark each entry Satisfied if its % Measurement value (conversion rate to 2-acetylnaphtho[2,3-b]furan-4,9-dione) sits below 70%, and Not satisfied for all others.

Below are worked cases with known answers.
Compound	Qualitative Label
CC(=O)c1cc2c(OC(=O)NCCCCN)c3ccccc3c(OC(=O)NCCCCN)c2o1.Cl.Cl [Example 13]	Not satisfied
CC(=O)c1cc2c(OC(=O)NCCCNCC(F)(F)F)c3ccccc3c(OC(=O)NCCCNCC(F)(F)F)c2o1.Cl.Cl [Example 53]	Not satisfied
CC(=O)c1cc2c(O)c3ccccc3c(OC(=O)NCCNCC(=O)O)c2o1.Cl [Example 78]	Satisfied
CC(=O)c1cc2c(OC(=O)NCCCCCN)c3ccccc3c(O)c2o1.Cl [Example 72]	Satisfied

Attention now turns to another entry.
# check: % Measurement value (conversion rate to 2-acetylnaphtho[2,3-b]furan-4,9-dione) < 70% for COC(=O)[C@@H](N)CNC(=O)Oc1c2ccccc2c(OC(=O)NC[C@H](N)C(=O)OC)c2oc(C(C)=O)cc12.Cl.Cl [Example 32]
Not satisfied

---

Below, each entry is listed with its recorded % Measurement value (conversion rate to 2-acetylnaphtho[2,3-b]furan-4,9-dione).
test: Evaluation of a conversion rate to 2-acetylnaphtho[2,3-b]furan-4,9-dione in human plasma; assay type: in vitro ADME; conditions: Human plasma, 1 umol/L, 37° C., incubation time 120 min
Use % as the unit, but write only the number.

Past entries and their recorded results:
Molecule	Assay Result
CC(=O)c1cc2c(OC(=O)NCCCCCNCC(=O)O)c3ccccc3c(OC(=O)NCCCCCNCC(=O)O)c2o1.Cl.Cl	78
CC(=O)c1cc2c(OC(=O)NCCNCCCC(=O)O)c3ccccc3c(OC(=O)NCCNCCCC(=O)O)c2o1.Cl.Cl	69
CC(=O)c1cc2c(OC(=O)NCCOCCN)c3ccccc3c(OC(=O)NCCOCCN)c2o1.Cl.Cl	65

Would you kindly share the measured % Measurement value (conversion rate to 2-acetylnaphtho[2,3-b]furan-4,9-dione) for CC(=O)c1cc2c(O)c3ccccc3c(OC(=O)NCCCNCCOC(N)=O)c2o1.Cl ?
27

# % Measurement value (conversion rate to 2-acetylnaphtho[2,3-b]furan-4,9-dione) lookup, item CCC(NCCNC(=O)Oc1c2ccccc2c(OC(=O)NCCNC(CC)C(=O)O)c2oc(C(C)=O)cc12)C(=O)O.Cl.Cl (stereo not shown)
70

For CC(=O)c1cc2c(OC(=O)NCCNCCS(=O)(=O)N3CCCCC3)c3ccccc3c(OC(=O)NCCNCCS(=O)(=O)N3CCCCC3)c2o1.Cl.Cl , what is its reported % Measurement value (conversion rate to 2-acetylnaphtho[2,3-b]furan-4,9-dione)?
63

Give its % Measurement value (conversion rate to 2-acetylnaphtho[2,3-b]furan-4,9-dione) value. Item: CC(=O)c1cc2c(OC(=O)NCCCNCCS(C)(=O)=O)c3ccccc3c(OC(=O)NCCCNCCS(C)(=O)=O)c2o1.Cl.Cl
68

---

assay: Evaluation of a conversion rate to 2-acetylnaphtho[2,3-b]furan-4,9-dione in pH 7.4 phosphate buffer solution; assay type: physicochemical; conditions: Phosphate buffer solution (pH 7.4), 1 umol/L, 37° C., incubation time 120 min
Label Criterion met for high-side % Measurement value (conversion rate to 2-acetylnaphtho[2,3-b]furan-4,9-dione) (at or above 40%) and Criterion not met for low-side % Measurement value (conversion rate to 2-acetylnaphtho[2,3-b]furan-4,9-dione) (below it).

Reported % Measurement value (conversion rate to 2-acetylnaphtho[2,3-b]furan-4,9-dione) reaches at least 40% for CC(=O)c1cc2c(OC(=O)NCCNCC(=O)N3CCC3)c3ccccc3c(OC(=O)NCCNCC(=O)N3CCC3)c2o1.Cl.Cl ?
Criterion not met

Kindly determine if % Measurement value (conversion rate to 2-acetylnaphtho[2,3-b]furan-4,9-dione) recorded for CC(=O)c1cc2c(OC(=O)OCCC[C@H](N)C(=O)O)c3ccccc3c(OC(=O)OCCC[C@H](N)C(=O)O)c2o1 is above or exactly 40%.
Criterion not met

Check the entry CC(=O)c1cc2c(OC(=O)NCCNCCOC(N)=O)c3ccccc3c(OC(=O)NCCNCCOC(N)=O)c2o1.Cl.Cl : does % Measurement value (conversion rate to 2-acetylnaphtho[2,3-b]furan-4,9-dione) equal or exceed 40%?
Criterion met

Given the entry COC(=O)CNCCNC(=O)Oc1c2ccccc2c(OC(=O)NCCNCC(=O)OC)c2oc(C(C)=O)cc12.Cl.Cl , answer whether its % Measurement value (conversion rate to 2-acetylnaphtho[2,3-b]furan-4,9-dione) meets or surpasses 40%.
Criterion met
